# Tested on: Echinochloa crus-galli (ECHCG)
# assay explanation: Post-emergence herbicide glasshouse test
# Format: in vivo
# test parameters: post-emergence (sprayed after 8 days cultivation), 250 g/ha, evaluated after 13 days
# Description: Seeds of a variety of test species are sown in standard soil in pots Amaranthus retoflexus (AMARE), Echinochloa crus-galli (ECHCG), Setaria faberi (SETFA)). […] After 13 days for pre and post-emergence, the test is evaluated for the percentage damage caused to the plant. […]
Attribute: percentage damage caused to the plant, five-point scale, ECHCG
reported metric: percentage damage caused to the plant, five-point scale, ECHCG

>  <structure smiles string>
Clc1cnc(Oc2cccc3cccc(Oc4ncc(Cl)cn4)c23)nc1

>  <result>
4 (4=61-80%)

$$$$
>  <structure smiles string>
FC(F)(F)CCCc1nc(Br)nc2cccc(Oc3ncc(Cl)cn3)c12

>  <result>
1 (1=0-20%)

$$$$
>  <structure smiles string>
Cc1ccc(Oc2ncc(Cl)cn2)c2c(CCCC(F)(F)F)nc(C(F)(F)F)nc12

>  <result>
3 (3=41-60%)

$$$$
>  <structure smiles string>
FC(F)(F)CCCc1nc(C(F)(F)F)nc2cccc(Oc3ncc(Br)cn3)c12

>  <result>
5 (5=81-100%)

$$$$

###

# Tested on: Echinochloa crus-galli (ECHCG)
# assay explanation: Post-emergence herbicide glasshouse test
# Type: in vivo
# test parameters: post-emergence (sprayed after 8 days cultivation), 250 g/ha, evaluated after 13 days
reported metric: percentage damage caused to the plant, five-point scale, ECHCG

>  <compound>
Cc1nc(CCCC(F)(F)F)c2c(Oc3ncc(Cl)cn3)ccc(Cl)c2n1 [Compound 1.019]

>  <result>
3 (3=41-60%)

$$$$
>  <compound>
CCCCCCc1nc(CCCC(F)(F)F)c2c(Oc3ncc(Cl)cn3)cccc2n1 [Compound 1.032]

>  <result>
3 (3=41-60%)

$$$$
>  <compound>
FC(F)(F)CCCc1cccc2cccc(Oc3ncc(Cl)cn3)c12 [Compound 1.002]

>  <result>
2 (2=21-40%)

$$$$
>  <compound>
FC(F)(F)CCOc1nc(C(F)(F)F)nc2cccc(Oc3ncc(Cl)cn3)c12 [Compound 1.006]

>  <result>
3 (3=41-60%)

$$$$
